# experiment: self-splicing fitness, log relative to wild type (ln ratio); higher = more splicing; Tetrahymena group I intron in knt gene, E. coli kanamycin selection, DiMSum; sequences stand for … in CUCUCU…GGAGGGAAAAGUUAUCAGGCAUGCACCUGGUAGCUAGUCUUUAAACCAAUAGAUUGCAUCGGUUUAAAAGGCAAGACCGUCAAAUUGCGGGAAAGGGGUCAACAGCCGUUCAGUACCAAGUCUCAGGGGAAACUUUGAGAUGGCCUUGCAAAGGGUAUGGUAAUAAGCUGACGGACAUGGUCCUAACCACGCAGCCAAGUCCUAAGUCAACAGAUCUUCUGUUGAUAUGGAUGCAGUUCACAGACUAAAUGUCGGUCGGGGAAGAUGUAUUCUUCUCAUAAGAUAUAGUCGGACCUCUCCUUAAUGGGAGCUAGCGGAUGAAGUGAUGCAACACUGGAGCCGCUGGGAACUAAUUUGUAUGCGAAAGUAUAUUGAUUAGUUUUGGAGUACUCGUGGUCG;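 note: selection with 25 µg/mL kanamycin versus none on LB agar overnight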
# settings: 30 °C
quantity.name: self-splicing fitness (ln)

In [3]: df
Out[3]:
        polymer_sequence  observed_measurement
 0  GCCCAGCAAUAUUACGUUUA                  -1.7
 1  CGGGAGCAAUAUUACGCACC                 -3.47
 2  AGAGAGCAAUAUUACGUUAC                 -2.67
 3  AGGCAGCAAUAUUACGAGGU                 -2.14
 4  AUAUAGCAAUAUUACGACCU                -0.348
 5  AACAAGCAAUAUUACGCACU                 0.195
 6  GAACAGCAAUAUUACGCCAC                 -3.15
 7  UACGAGCAAUAUUACGAAUC                 -4.18
 8  GCUGAGCAAUAUUACGGGCC                 -2.39
 9  GAAAAGCAAUAUUACGGCUG                 -0.13
10  GAAAAGCAAUAUUACGUAGU                 -2.02
